B1: PDZK1 (parent)
chain: QKEQGLSDNILSPVMNGGVQTWTQ

- Variants of: B1
- Test method notes: protein stability index of a GFP-peptide fusion (GPS, HEK-293T) (PSI 1-6); higher = more stable;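 note: lentivirally expressed fusions sorted by FACS into six bins by GFP to DsRed ratio, PSI derived from sequencing read proportions per bin multiplied by bin number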
- Cond: c terminus: a fixed tail appended
Metric name: protein stability index

- QKEQGCSDNILSPVMNGGVQTWTQ [L6C]: 2.98
- QKEQGRSDNILSPVMNGGVQTWTQ [L6R]: 3.71
- QKEQGLSPNILSPVMNGGVQTWTQ [D8P]: 2.34
- YKEQGLSDNILSPVMNGGVQTWTQ [Q1Y]: 2.47
- QKEQGLSDNILSPVMNGMVQTWTQ [G18M]: 2.58
- QKEQGLSDNILSPVMNGGVQTCTQ [W22C]: 4.8
- QKEQGLSDNIHSPVMNGGVQTWTQ [L11H]: 2.75
- QKEQGLSDNILSPVMNGKVQTWTQ [G18K]: 1.53
- QKEMGLSDNILSPVMNGGVQTWTQ [Q4M]: 1.82
- QKEQGLSDIILSPVMNGGVQTWTQ [N9I]: 2.88
- QKEQGLSDNILSPVMEGGVQTWTQ [N16E]: 3.41
- QKEQGLSDNILSPVMNGGVQTWMQ [T23M]: 3.74
- QKMQGLSDNILSPVMNGGVQTWTQ [E3M]: 2.61
- QKEQGLSDNILSPVMNGGVWTWTQ [Q20W]: 3.36
- QKEQGLSDNILSPVMNVGVQTWTQ [G17V]: 3.6
- QKEQGLSDNILSPVMNGGVQTWTT [Q24T]: 3.66
- QKEQGLSDNILSPVMNGGFQTWTQ [V19F]: 2.42
- QKEQGLSDNILSPVMNGGVQTATQ [W22A]: 4.41
- QKEQGLSDNILSPVMNGGVQTNTQ [W22N]: 5.08
- QKEQGLSDNILSPVMNRGVQTWTQ [G17R]: 2.04
- QKEQGLSDNIFSPVMNGGVQTWTQ [L11F]: 2.13
- QKWQGLSDNILSPVMNGGVQTWTQ [E3W]: 2.17
- QKEQALSDNILSPVMNGGVQTWTQ [G5A]: 2.4
- QKEQGLSDMILSPVMNGGVQTWTQ [N9M]: 2.74
- QKRQGLSDNILSPVMNGGVQTWTQ [E3R]: 1.52
- QKEQGLSDNILSPVYNGGVQTWTQ [M15Y]: 2.44
- QKEQGLSDNILSPVSNGGVQTWTQ [M15S]: 2.21
- QKEQGLSDNILSPVMNGGVQTPTQ [W22P]: 5.07
- QHEQGLSDNILSPVMNGGVQTWTQ [K2H]: 2.81
- QKCQGLSDNILSPVMNGGVQTWTQ [E3C]: 2.05
- QKEQGLSDNIMSPVMNGGVQTWTQ [L11M]: 3.25
- QKVQGLSDNILSPVMNGGVQTWTQ [E3V]: 2.05
- QKEQWLSDNILSPVMNGGVQTWTQ [G5W]: 2.29
- QKEQGLSDNILSAVMNGGVQTWTQ [P13A]: 2.06
- QKLQGLSDNILSPVMNGGVQTWTQ [E3L]: 2.12
- QKEQGLSDNILSPVMYGGVQTWTQ [N16Y]: 2.45
- QKEQGLSDNILSPVMNGGVQTWIQ [T23I]: 4
- NKEQGLSDNILSPVMNGGVQTWTQ [Q1N]: 2.75
- QKEQILSDNILSPVMNGGVQTWTQ [G5I]: 2.48
- QKEQGLSDNILSPVTNGGVQTWTQ [M15T]: 2.97
- QKEQGLSDNILSPVMNGGVKTWTQ [Q20K]: 3.8
- QKEQGLSDNILSPVMNGGVQTDTQ [W22D]: 4.78
- QKEQGLSDNILSPVMPGGVQTWTQ [N16P]: 2.12
- QKEQGLEDNILSPVMNGGVQTWTQ [S7E]: 3.43
- QKEQGLCDNILSPVMNGGVQTWTQ [S7C]: 3.27
- QKEQGLSDNILSPVMNGGVQTWTG [Q24G]: 3.58
- QKEQGLSDNILSPVMNGGVQTWQQ [T23Q]: 2.16
- QKEQGLSDDILSPVMNGGVQTWTQ [N9D]: 3.45
- QKEQGLSDNILSPCMNGGVQTWTQ [V14C]: 3.74
- QKEQGLSDNNLSPVMNGGVQTWTQ [I10N]: 3.43
- QKEQGLSDNGLSPVMNGGVQTWTQ [I10G]: 2.83
- CKEQGLSDNILSPVMNGGVQTWTQ [Q1C]: 1.91
- QKEQGLSDNILSPVMNGGVQTWPQ [T23P]: 4.25
- QKEQGLSDNILSPVMNGGGQTWTQ [V19G]: 2.9
- QKEQGLSDNILSPVMNGGVQTWSQ [T23S]: 3.43
- QKEQGLSDNILSNVMNGGVQTWTQ [P13N]: 3.05
- QKEQGLSDNILSPVMNGGVQTYTQ [W22Y]: 4.09
- QKEQGLSDNILSSVMNGGVQTWTQ [P13S]: 2.37
- QPEQGLSDNILSPVMNGGVQTWTQ [K2P]: 2.67
- QKEQGLSDNILSPVMNGGRQTWTQ [V19R]: 1.85
- QKEQGLSDNILSPQMNGGVQTWTQ [V14Q]: 2.9
- QKEQGLSDNILSYVMNGGVQTWTQ [P13Y]: 1.9
- QKEQGLSDVILSPVMNGGVQTWTQ [N9V]: 2.38
- QKEQGLSDNILSPVMNGGVNTWTQ [Q20N]: 3.73
- QSEQGLSDNILSPVMNGGVQTWTQ [K2S]: 3.13
- QKEQGLSDNILSPVMNGGVQNWTQ [T21N]: 3.65
- QKEQGLSDNILYPVMNGGVQTWTQ [S12Y]: 2.83
- QKEQGLSDNILSPVMQGGVQTWTQ [N16Q]: 1.72
- QKEQGLSDNILSPVMNGGAQTWTQ [V19A]: 2.99
- QKEQGLSDNILSPVMNFGVQTWTQ [G17F]: 2.19
- QKEQGLSDNQLSPVMNGGVQTWTQ [I10Q]: 3.34
- QKEQGLSDNILSPVMNGGVQTWTH [Q24H]: 2.84
